Form field: IC50 at 24 h (one value per entry).
procedure_details: Cytotoxicity, CellTiter-Blue cell viability assay
Type: cell-based
setup_conditions: human; CellTiter-Blue, peptides 0.05–100.0 µM, 24 h; triplicates, three independent cultures; read-out: Cytotoxicity IC50 HeLa
No end group written: not given here.

substance: EEGRLYMRYYSPTTRRYG-NH2 [BBBpS_3]
recorded_endpoint: IC50 at 24 h
value_observed: > 100 µM

Which measured IC50 at 24 h value corresponds to KKKKQPPKPKKPKTQEKKKKQPPKPKR-NH2 [non-BBBpS_1] ?
> 100 µM

====

procedure_details: Biodistribution of 67Ga-radiolabeled peptides
Set-up: species or system mouse
setup_conditions: female, CD1, mouse, in vivo, iv, 100 uCi, total radioactivity, Tissue distribution, Kidney
Procedure: All animal experiments were performed in compliance with national and EU legislation for good practices on laboratory animal science. The animals were housed in a temperature and humidity-controlled environment with a 12 h light/12 h dark schedule. Biodistribution of radiolabeled peptides was performed on 7 weeks old CD1 female mice. Animals were intravenously injected into the tail vein with 100 µL of a 25 µM saline solution of the ^67Ga-peptide with a radioactivity around 100 µCi. […]
Residues, ends and D or L forms follow the SMILES beside them. *: point of attachment. NODAGA = O=C(O)CN1CCN(CC(=O)O)CCN(C(CCC(=O)*)C(=O)O)CC1
recorded_endpoint: tissue uptake at 2 min
Remember to follow the number with its unit.

compound: CC[C@H](C)[C@H](NC(=O)[C@H](Cc1c[nH]cn1)NC(=O)CCC(C(=O)O)N1CCN(CC(=O)O)CCN(CC(=O)O)CC1)C(=O)N[C@@H](CCC(N)=O)C(=O)N[C@@H](CC(C)C)C(=O)N[C@@H](CO)C(=O)N1CCC[C@H]1C(=O)N[C@@H](Cc1ccccc1)C(=O)N[C@@H](CO)C(=O)N[C@@H](CCC(N)=O)C(=O)N[C@@H](CO)C(=O)N[C@@H](Cc1c[nH]c2ccccc12)C(=O)N[C@@H](CCCNC(=N)N)C(N)=O (stereo partly shown) [67Ga-BBBpS_5, metal not drawn] ({NODAGA}-HIQLSPFSQSWR-NH2)
value_observed: 22 %ID/g
--
compound: CC[C@H](C)[C@H](NC(=O)[C@H](C)NC(=O)CNC(=O)[C@H](CO)NC(=O)[C@H](CCCNC(=N)N)NC(=O)[C@H](Cc1ccc(O)cc1)NC(=O)[C@H](CCCCN)NC(=O)CCC(C(=O)O)N1CCN(CC(=O)O)CCN(CC(=O)O)CC1)C(=O)N[C@H](C(=O)N[C@H](C(=O)NCC(=O)N[C@@H](Cc1ccc(O)cc1)C(N)=O)[C@@H](C)CC)[C@@H](C)O (stereo partly shown) [67Ga-BBBpS_2, metal not drawn] ({NODAGA}-KYRSGAITIGY-NH2)
value_observed: 18.1 %ID/g
--
compound: CC(C)C[C@H](NC(=O)[C@H](Cc1c[nH]c2ccccc12)NC(=O)[C@H](Cc1ccccc1)NC(=O)[C@H](CCC(N)=O)NC(=O)[C@H](C)NC(=O)[C@H](CO)NC(=O)[C@H](CC(=O)O)NC(=O)[C@@H]1CCCN1C(=O)[C@H](CCCNC(=N)N)NC(=O)[C@H](CC(N)=O)NC(=O)CCC(C(=O)O)N1CCN(CC(=O)O)CCN(CC(=O)O)CC1)C(=O)N[C@@H](Cc1c[nH]cn1)C(=O)N[C@@H](Cc1c[nH]cn1)C(N)=O (stereo partly shown) [67Ga-BBBpS_9, metal not drawn] ({NODAGA}-NRPDSAQFWLHH-NH2)
value_observed: 30 %ID/g

Turning now to a further record.
Which measured tissue uptake at 2 min value corresponds to CC[C@H](C)[C@H](NC(=O)[C@H](C)NC(=O)CNC(=O)[C@H](CCCCN)NC(=O)[C@H](Cc1ccc(O)cc1)NC(=O)[C@H](CCCCN)NC(=O)CCC(C(=O)O)N1CCN(CC(=O)O)CCN(CC(=O)O)CC1)C(=O)N[C@H](C(=O)NCC(=O)N[C@@H](CC(N)=O)C(=O)N[C@H](C(=O)N[C@@H](CCCCN)C(N)=O)[C@@H](C)CC)[C@@H](C)CC (stereo partly shown) [67Ga-BBBpS_1, metal not drawn] ({NODAGA}-KYKGAIIGNIK-NH2) ?
33.8 %ID/g

====

procedure_details: Biodistribution of 67Ga-radiolabeled peptides
Parameters: species or system mouse
setup_conditions: female, CD1, mouse, in vivo, iv, 100 uCi, total radioactivity, Tissue distribution, Intestine
Residues, ends and D or L forms follow the SMILES beside them. *: point of attachment. NODAGA = O=C(O)CN1CCN(CC(=O)O)CCN(C(CCC(=O)*)C(=O)O)CC1
Form field: tissue uptake at 2 min (one value per entry).
Reply with just the number (in %ID/g).

Examples with their reported tissue uptake at 2 min follow.
compound: CC[C@H](C)[C@H](NC(=O)[C@H](C)NC(=O)CNC(=O)[C@H](CO)NC(=O)[C@H](CCCNC(=N)N)NC(=O)[C@H](Cc1ccc(O)cc1)NC(=O)[C@H](CCCCN)NC(=O)CCC(C(=O)O)N1CCN(CC(=O)O)CCN(CC(=O)O)CC1)C(=O)N[C@H](C(=O)N[C@H](C(=O)NCC(=O)N[C@@H](Cc1ccc(O)cc1)C(N)=O)[C@@H](C)CC)[C@@H](C)O (stereo partly shown) [67Ga-BBBpS_2, metal not drawn] ({NODAGA}-KYRSGAITIGY-NH2)
tissue uptake at 2 min, %ID/g: 1.5
//
compound: CC[C@H](C)[C@H](NC(=O)[C@H](Cc1c[nH]cn1)NC(=O)CCC(C(=O)O)N1CCN(CC(=O)O)CCN(CC(=O)O)CC1)C(=O)N[C@@H](CCC(N)=O)C(=O)N[C@@H](CC(C)C)C(=O)N[C@@H](CO)C(=O)N1CCC[C@H]1C(=O)N[C@@H](Cc1ccccc1)C(=O)N[C@@H](CO)C(=O)N[C@@H](CCC(N)=O)C(=O)N[C@@H](CO)C(=O)N[C@@H](Cc1c[nH]c2ccccc12)C(=O)N[C@@H](CCCNC(=N)N)C(N)=O (stereo partly shown) [67Ga-BBBpS_5, metal not drawn] ({NODAGA}-HIQLSPFSQSWR-NH2)
tissue uptake at 2 min, %ID/g: 2.2
//
compound: CC[C@H](C)[C@H](NC(=O)[C@H](C)NC(=O)CNC(=O)[C@H](CCCCN)NC(=O)[C@H](Cc1ccc(O)cc1)NC(=O)[C@H](CCCCN)NC(=O)CCC(C(=O)O)N1CCN(CC(=O)O)CCN(CC(=O)O)CC1)C(=O)N[C@H](C(=O)NCC(=O)N[C@@H](CC(N)=O)C(=O)N[C@H](C(=O)N[C@@H](CCCCN)C(N)=O)[C@@H](C)CC)[C@@H](C)CC (stereo partly shown) [67Ga-BBBpS_1, metal not drawn] ({NODAGA}-KYKGAIIGNIK-NH2)
tissue uptake at 2 min, %ID/g: 1.7

Which measured tissue uptake at 2 min value corresponds to CC(C)C[C@H](NC(=O)[C@H](Cc1c[nH]c2ccccc12)NC(=O)[C@H](Cc1ccccc1)NC(=O)[C@H](CCC(N)=O)NC(=O)[C@H](C)NC(=O)[C@H](CO)NC(=O)[C@H](CC(=O)O)NC(=O)[C@@H]1CCCN1C(=O)[C@H](CCCNC(=N)N)NC(=O)[C@H](CC(N)=O)NC(=O)CCC(C(=O)O)N1CCN(CC(=O)O)CCN(CC(=O)O)CC1)C(=O)N[C@@H](Cc1c[nH]cn1)C(=O)N[C@@H](Cc1c[nH]cn1)C(N)=O (stereo partly shown) [67Ga-BBBpS_9, metal not drawn] ({NODAGA}-NRPDSAQFWLHH-NH2) ?
1.9

====

procedure_details: Biodistribution of 67Ga-radiolabeled peptides
Set-up: species or system mouse
setup_conditions: female, CD1, mouse, in vivo, iv, 100 uCi, total radioactivity, Tissue distribution, Lung
Residues, ends and D or L forms follow the SMILES beside them. *: point of attachment. NODAGA = O=C(O)CN1CCN(CC(=O)O)CCN(C(CCC(=O)*)C(=O)O)CC1
recorded_endpoint: tissue uptake at 2 min

Which measured tissue uptake at 2 min value corresponds to CC(C)C[C@H](NC(=O)[C@H](Cc1c[nH]c2ccccc12)NC(=O)[C@H](Cc1ccccc1)NC(=O)[C@H](CCC(N)=O)NC(=O)[C@H](C)NC(=O)[C@H](CO)NC(=O)[C@H](CC(=O)O)NC(=O)[C@@H]1CCCN1C(=O)[C@H](CCCNC(=N)N)NC(=O)[C@H](CC(N)=O)NC(=O)CCC(C(=O)O)N1CCN(CC(=O)O)CCN(CC(=O)O)CC1)C(=O)N[C@@H](Cc1c[nH]cn1)C(=O)N[C@@H](Cc1c[nH]cn1)C(N)=O (stereo partly shown) [67Ga-BBBpS_9, metal not drawn] ({NODAGA}-NRPDSAQFWLHH-NH2) ?
5.4 %ID/g
